System: SMN2 Splicing D7 (SMN Δ7 transcript)
TEST: SMN Quantitative Splicing Assay (qPCR)
Format: cell-based, human
CONDITION SET: Homo sapiens, Fibroblast, 24 h, SMA patient fibroblasts (GM03813), 2.5 µM to 0.6 nM
Items are presented alongside their recorded IC50.

INSERT INTO assay_data (compound, assay_metric, recorded_value) VALUES
  ('Cc1nc2cc(O)c(-c3ncc(N(C)[C@H]4C[C@]5(C)CC[C@@](C)(N5)[C@H]4F)nn3)cc2nc1C', 'IC50', '0.01 to 15 nM');

Query string: What does the record list as IC50 for "Cc1cc(=O)c2cc(-c3ncc(N(C)[C@H]4C[C@@H]5CCC[C@@H](N5)[C@H]4F)nn3)c(O)cc2o1" ?
Result string: 16 to 50 nM

Query string: Can you share its IC50? I mean this compound: Cc1cc(=O)c2cc(-c3ncc(N(C)[C@H]4C[C@@H]5CC[C@@H](N5)[C@H]4F)nn3)c(O)cc2o1 (single isomer, unassigned)
Result string: 16 to 50 nM

Query string: Any idea what IC50 was measured for Cc1cnc2cc(-c3ncc(N(C)[C@H]4CC5CCCC(N5)[C@H]4F)nn3)c(O)cc2n1 (stereo partly drawn) ?
Result string: 16 to 50 nM

Query string: Given the compound "CCn1ncc2cc(-c3ncc(N(C)[C@@H]4CC5CC[C@H](N5)[C@@H]4F)nn3)c(O)cc2c1=O" , what is its reported IC50?
Result string: 51 to 100 nM

Query string: GET /values?readout=IC50&item= CN(c1cnc(-c2cc3cnn(C)c(=O)c3cc2O)nn1)[C@@H]1CC2CCC(N2)[C@@H]1F (single isomer, unassigned)
Result string: 0.01 to 15 nM
